measured.attribute: IC50 (µM)
Form entry: value (µM) — number only.

Record c1ccc(CNc2nc(NCc3ccccc3)c3ccccc3n2)cc1 : what is its IC50 with wild-type p97 (Homo sapiens, UniProt P55072)?
5.4
